Assay Info: AUC (0 to infinity) in C57BL/6NCrlCrlj mouse at 1 mg/kg, iv by LC-MS/MS analysis
Assay type: ADME, organism-based
Set-up: dose 1 mg/kg, time infinity, route intravenous
Stated Conditions: in vivo
Reported Property: AUC(0-inf)
Mention the unit after the number when you answer.

Please report the recorded AUC(0-inf) for "Cc1ncc(OC[C@@]2(c3cccc(F)c3)C[C@H]2C(=O)Nc2ccc(F)cn2)c(C)n1" .
1030 ng·h/mL

====

Assay Info: AUC (0 to infinity) in C57BL/6NCrlCrlj mouse at 30 mg/kg, po by LC-MS/MS analysis
Type: ADME, organism-based
Set-up: dose 30 mg/kg, time infinity, route oral
Stated Conditions: in vivo
Reported Property: AUC(0-inf) (ng·h/mL)
Your answer is read as ng·h/mL, so omit the unit and give the number.

Entry under review: Cc1ncc(OC[C@@]2(c3cccc(F)c3)C[C@H]2C(=O)Nc2ccc(F)cn2)c(C)n1 [LEMBOREXANT] . Reported AUC(0-inf)?
4130

====

Assay Info: Activity at P-gp (unknown origin) assessed as corrected flux ratio
Type: ADME
Stated Conditions: human
Reported Ratio is given for each of the following compounds.
# print the numeric value only

Example entries and their recorded answers appear below.
Compound	Ratio
COc1ccc(OC[C@@]2(c3ccccc3)C[C@H]2C(=O)Nc2ccc(C#N)cn2)cc1OC	1
Cc1ccc(NC(=O)[C@@H]2C[C@@]2(COc2cnc(C)nc2C)c2ccccc2)nc1	1.3
Cc1ncc(OC[C@@]2(c3ccc(F)cc3)C[C@H]2C(=O)Nc2ccc(F)cn2)c(C)n1	1.3

Now look at this one.
Value lookup for Ratio; key = "COc1cc(NC(=O)[C@@H]2C[C@@]2(COc2cnc(C)nc2C)c2ccccc2)ncc1F"
1.6

====

Listed compounds paired with reported pIC50
Subject Of Test: UniProtKB Q12809
Sequence (Q12809 whole entry): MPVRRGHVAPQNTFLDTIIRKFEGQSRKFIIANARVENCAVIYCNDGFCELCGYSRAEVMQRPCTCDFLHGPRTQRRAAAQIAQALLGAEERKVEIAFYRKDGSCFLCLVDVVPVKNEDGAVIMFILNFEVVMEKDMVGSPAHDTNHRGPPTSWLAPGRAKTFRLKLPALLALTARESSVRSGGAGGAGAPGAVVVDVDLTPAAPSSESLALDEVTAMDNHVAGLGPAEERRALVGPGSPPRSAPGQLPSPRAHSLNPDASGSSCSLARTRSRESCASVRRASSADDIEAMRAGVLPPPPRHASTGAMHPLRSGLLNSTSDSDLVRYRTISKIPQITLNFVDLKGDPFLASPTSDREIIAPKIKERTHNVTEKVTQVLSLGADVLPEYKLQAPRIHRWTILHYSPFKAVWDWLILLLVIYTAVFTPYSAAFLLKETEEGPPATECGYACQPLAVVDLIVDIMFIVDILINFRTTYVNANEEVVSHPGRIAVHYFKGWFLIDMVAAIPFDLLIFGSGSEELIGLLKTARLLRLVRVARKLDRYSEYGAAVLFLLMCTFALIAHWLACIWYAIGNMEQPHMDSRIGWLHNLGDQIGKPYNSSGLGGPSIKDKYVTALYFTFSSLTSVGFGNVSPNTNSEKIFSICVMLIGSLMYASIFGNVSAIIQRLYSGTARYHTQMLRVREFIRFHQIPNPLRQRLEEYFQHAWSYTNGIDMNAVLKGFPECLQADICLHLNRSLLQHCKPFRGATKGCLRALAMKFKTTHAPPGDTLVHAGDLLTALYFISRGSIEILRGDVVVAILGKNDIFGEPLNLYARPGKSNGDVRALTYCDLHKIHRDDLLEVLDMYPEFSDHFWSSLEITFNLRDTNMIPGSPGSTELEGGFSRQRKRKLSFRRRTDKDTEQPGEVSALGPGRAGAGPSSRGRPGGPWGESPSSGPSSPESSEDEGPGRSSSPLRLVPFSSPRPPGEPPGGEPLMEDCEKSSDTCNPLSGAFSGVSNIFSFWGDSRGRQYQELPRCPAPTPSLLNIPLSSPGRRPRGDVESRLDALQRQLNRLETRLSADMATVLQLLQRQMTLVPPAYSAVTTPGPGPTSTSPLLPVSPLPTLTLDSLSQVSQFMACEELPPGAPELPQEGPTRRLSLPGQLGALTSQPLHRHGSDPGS
Note on pIC50: it is the negative log10 of concentration, concentration in mol/L.

Solved entries (count: 3):
Substance Smiles	pIC50
Cc1ncc(OC[C@@]2(c3ccc(F)cc3)C[C@H]2C(=O)Nc2ccc(F)cn2)c(C)n1	5.66
Cc1ncc(OC[C@@]2(c3ccccc3)C[C@H]2C(=O)Nc2ccc(F)cn2)c(C)n1	5.11
Cc1ncc(OC[C@@]2(c3cc(F)cc(F)c3)C[C@H]2C(=O)Nc2ccc(F)cn2)c(C)n1	5.32

Recorded pIC50 for "Cc1ncc(OC[C@@]2(c3ccccc3F)C[C@H]2C(=O)Nc2ccc(F)cn2)c(C)n1" , please?
5.23

Please report the recorded pIC50 for "Cc1ncc(OC[C@@]2(c3cccc(F)c3)C[C@H]2C(=O)Nc2ccc(F)cn2)c(C)n1" .
5.21

====

Subject Of Test: Cytochrome P450 2D6 (Homo sapiens, UniProt P10635)
Sequence (P10635 whole entry): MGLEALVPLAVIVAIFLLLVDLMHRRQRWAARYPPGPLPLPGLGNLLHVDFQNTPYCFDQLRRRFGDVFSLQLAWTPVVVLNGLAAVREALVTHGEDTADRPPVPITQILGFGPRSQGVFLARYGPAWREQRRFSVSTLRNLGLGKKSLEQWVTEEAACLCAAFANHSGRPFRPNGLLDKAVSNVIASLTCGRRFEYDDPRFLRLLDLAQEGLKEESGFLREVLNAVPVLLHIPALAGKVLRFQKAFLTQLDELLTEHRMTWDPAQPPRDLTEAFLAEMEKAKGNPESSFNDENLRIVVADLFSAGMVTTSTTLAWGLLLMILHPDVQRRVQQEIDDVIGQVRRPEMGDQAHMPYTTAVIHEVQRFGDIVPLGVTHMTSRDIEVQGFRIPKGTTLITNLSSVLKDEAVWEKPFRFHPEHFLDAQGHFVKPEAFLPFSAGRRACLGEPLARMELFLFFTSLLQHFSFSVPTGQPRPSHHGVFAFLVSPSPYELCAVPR
Reported Property: IC50

# returns recorded IC50 (system: Cytochrome P450 2D6 (Homo sapiens, UniProt P10635)) for Cc1ncc(OC[C@@]2(c3cccc(F)c3)C[C@H]2C(=O)Nc2ccc(F)cn2)c(C)n1 [LEMBOREXANT]
> 20 µM

====

Assay Info: Drug uptake in C57BL/6NCrlCrlj mouse CSF at 10 mg/kg, po administered as single dose measured after 3 hrs by LC-MS/MS analysis
Assay type: ADME, organism-based, Cerebrospinal fluid
Stated Conditions: read-out: Drug uptake
Reported Property: concentration at 3 h (nM)
The answer is to be given in nM; state only the numeric part.

Which measured concentration at 3 h value corresponds to "Cc1ncc(OC[C@@]2(c3cccc(F)c3)C[C@H]2C(=O)Nc2ccc(F)cn2)c(C)n1" ?
7.6
